Data provenance is patent US20220249561A1.

# study.system: T1, LTK 001P
# T1 construct: Expressed in Expi293 cells and captured on a Protein A chip through its Fc
# assay.explanation: SPR, Biacore 8K; LTK 001P captured on Protein A chip, ligand as analyte, 6 concentrations from 20 nM

[
  {
    "binder": "Ligand 008P (ligand) DGHHHHHHGSLQDSEVNQEAKPEVKPEVKPETHINLKVSDGSSEIFFKIKKTTPLRRLMEAFAKRQGKEMDSLTFLYDGIEIQADQTPEDLDMEDNDIIEAHREQIGGLEVLFQGPGLGPSPEQRVEIVPRDLRMKDKFLKHLTGPLYFSPKCSKHFHRLYHNTRDCTIPAYYKRCARLLTRLAVSPVCMEDKQ",
    "binding result": "binds"
  },
  {
    "binder": "Ligand 006P (ligand) DGHHHHHHGSLQDSEVNQEAKPEVKPEVKPETHINLKVSDGSSEIFFKIKKTTPLRRLMEAFAKRQGKEMDSLTFLYDGIEIQADQTPEDLDMEDNDIIEAHREQIGGLEVLFQGPGRAEAAGLGPSPEQRVEIVPRDLRMKDKFLKHLTGPLYFSPKCSKHFHRLYHNTRDCTIPAYYKRCARLLTRLAVSPVCMEDKQ",
    "binding result": "binds"
  },
  {
    "binder": "Ligand 022P (ligand) DGHHHHHHGSLQDSEVNQEAKPEVKPEVKPETHINLKVSDGSSEIFFKIKKTTPLRRLMEAFAKRQGKEMDSLTFLYDGIEIQADQTPEDLDMEDNDIIEAHREQIGGLEVLFQGPGPLYFSPKCSKHFHRLYHNTRDCTIPAYYKRCARLLTRLAVSPVCMEDKQ",
    "binding result": "binds"
  }
]
